The reported numbers originate from the MegaScale stability set (Tsuboyama et al. 2023).

B1: EHEE_rd2_0191 (parent)
chain: TTEYTFTDDEEARRAIEELKKRGLTFRYEKHGTTWRVRVD

Variants of: B1
Test: folding stability dG (cDNA display proteolysis); higher = more stable
Conditions: PBS, room temperature
Each record's class is read off its folding stability dG using these ranges: LOW: < 1 kcal/mol; MID: ≥ 1 kcal/mol and < 2 kcal/mol; HIGH: ≥ 2 kcal/mol

A selection of reference data follows.
# residueCodes, answerLabel
rows = [
    ("TTRYTFTDDEEARRAIEELKKRGLTFRYEKHGTTWRVRVD [E3R]", "MID"),
    ("TTEYTFTDFEEARRAIEELKKRGLTFRYEKHGTTWRVRVD [D9F]", "HIGH"),
    ("TTEYTFTDDEEARRAAEELKKRGLTFRYEKHGTTWRVRVD [I16A]", "LOW"),
]

Query block: State the band of TTMYTFTDDEEARRAIEELKKRGLTFRYEKHGTTWRVRVD [E3M]
Result block: HIGH
